A collection of molecules and their measured pKi
target: UniProt:P18825; assay: Displacement of [3H]RX 821002 from recombinant human alpha2C receptor measured after 60 mins by scintillation counting analysis
Sequence (P18825 whole entry): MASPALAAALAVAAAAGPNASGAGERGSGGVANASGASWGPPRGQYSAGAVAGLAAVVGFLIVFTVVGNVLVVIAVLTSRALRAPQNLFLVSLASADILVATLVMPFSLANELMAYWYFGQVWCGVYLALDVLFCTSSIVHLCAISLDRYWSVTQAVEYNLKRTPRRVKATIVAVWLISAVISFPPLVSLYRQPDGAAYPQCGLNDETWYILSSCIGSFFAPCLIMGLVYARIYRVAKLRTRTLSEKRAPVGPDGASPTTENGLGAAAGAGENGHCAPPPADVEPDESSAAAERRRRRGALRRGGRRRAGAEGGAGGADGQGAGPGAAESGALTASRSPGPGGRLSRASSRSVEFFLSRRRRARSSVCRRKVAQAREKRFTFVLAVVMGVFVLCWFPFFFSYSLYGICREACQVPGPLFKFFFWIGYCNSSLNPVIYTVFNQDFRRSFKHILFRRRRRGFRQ
Entry type: numeric. Quantity: pKi, the -log10 of concentration in molar units.

1. [2H]c1c([2H])c([2H])c([C@@H]2C[C@@H](N3CCNC(C)(C)C3)c3cc(Cl)ccc32)c([2H])c1[2H]
6.80

Below: the item to evaluate.
**Q:** Check the records and state pKi for [2H]c1c([2H])c([2H])c([C@@H]2C[C@@H](N3CCN(C([2H])([2H])[2H])C(C)(C)C3)c3cc(Cl)ccc32)c([2H])c1[2H]
**A:** 8.01

---

molecular target: Alpha-1D adrenergic receptor (Homo sapiens, UniProt P25100); test: Displacement of [3H]prazosin from recombinant human alpha1D receptor measured after 60 mins by scintillation counting analysis
Sequence (P25100 whole entry): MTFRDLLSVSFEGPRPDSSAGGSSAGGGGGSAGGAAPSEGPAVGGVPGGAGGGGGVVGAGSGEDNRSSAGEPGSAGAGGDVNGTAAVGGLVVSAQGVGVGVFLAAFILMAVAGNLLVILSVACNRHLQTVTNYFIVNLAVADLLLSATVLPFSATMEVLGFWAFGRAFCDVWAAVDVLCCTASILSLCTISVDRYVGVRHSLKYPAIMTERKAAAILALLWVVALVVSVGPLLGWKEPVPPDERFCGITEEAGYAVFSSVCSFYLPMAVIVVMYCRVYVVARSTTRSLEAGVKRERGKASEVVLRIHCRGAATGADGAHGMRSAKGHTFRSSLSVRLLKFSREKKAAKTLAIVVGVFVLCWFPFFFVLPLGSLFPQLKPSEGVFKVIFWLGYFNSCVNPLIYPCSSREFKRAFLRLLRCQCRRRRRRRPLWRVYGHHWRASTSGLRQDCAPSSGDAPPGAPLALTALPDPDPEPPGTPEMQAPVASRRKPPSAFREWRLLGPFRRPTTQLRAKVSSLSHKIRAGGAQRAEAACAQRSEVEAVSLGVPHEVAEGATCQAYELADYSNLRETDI
A collection of molecules and their measured Ki
API: value field is a number in nM; no unit string.

**Q:** Check the records and state Ki for [2H]c1c([2H])c([2H])c([C@@H]2C[C@@H](N3CCN(C([2H])([2H])[2H])C(C)(C)C3)c3cc(Cl)ccc32)c([2H])c1[2H]
**A:** 9.5

**Q:** Check the records and state Ki for [2H]c1c([2H])c([2H])c([C@@H]2C[C@@H](N3CCNC(C)(C)C3)c3cc(Cl)ccc32)c([2H])c1[2H]
**A:** 35

---

biological target: 5-hydroxytryptamine receptor 2B (Homo sapiens, UniProt P41595); assay: Displacement of [125I](+/-)DOI from recombinant human 5-HT2B receptor measured after 60 mins by scintillation counting analysis
Sequence (P41595 whole entry): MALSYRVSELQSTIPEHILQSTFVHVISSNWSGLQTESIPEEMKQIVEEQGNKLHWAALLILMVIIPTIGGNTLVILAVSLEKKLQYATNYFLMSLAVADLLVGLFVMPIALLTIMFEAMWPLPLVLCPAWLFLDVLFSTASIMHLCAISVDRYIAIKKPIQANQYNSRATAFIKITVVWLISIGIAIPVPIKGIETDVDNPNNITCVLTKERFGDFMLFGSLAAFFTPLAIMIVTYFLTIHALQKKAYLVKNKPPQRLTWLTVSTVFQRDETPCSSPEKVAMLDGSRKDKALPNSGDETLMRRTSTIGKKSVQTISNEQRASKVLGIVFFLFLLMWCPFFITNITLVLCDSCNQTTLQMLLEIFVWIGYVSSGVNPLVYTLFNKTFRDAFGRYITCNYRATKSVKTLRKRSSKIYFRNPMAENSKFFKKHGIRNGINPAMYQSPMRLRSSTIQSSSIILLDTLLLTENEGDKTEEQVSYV
Measured quantity: Ki (pM)
API: value field is a number in pM; no unit string.

1. [2H]c1c([2H])c([2H])c([C@@H]2C[C@@H](N3CCNC(C)(C)C3)c3cc(Cl)ccc32)c([2H])c1[2H]
390

**Q:** Check the records and state Ki for [2H]c1c([2H])c([2H])c([C@@H]2C[C@@H](N3CCN(C([2H])([2H])[2H])C(C)(C)C3)c3cc(Cl)ccc32)c([2H])c1[2H]
**A:** 400

---

A collection of compounds and their measured Ki
molecular target: UniProtKB P35462; experiment: Displacement of [3H]methyl-spiperone from recombinant human D3 receptor measured after 60 mins by scintillation counting analysis
Sequence (P35462 whole entry): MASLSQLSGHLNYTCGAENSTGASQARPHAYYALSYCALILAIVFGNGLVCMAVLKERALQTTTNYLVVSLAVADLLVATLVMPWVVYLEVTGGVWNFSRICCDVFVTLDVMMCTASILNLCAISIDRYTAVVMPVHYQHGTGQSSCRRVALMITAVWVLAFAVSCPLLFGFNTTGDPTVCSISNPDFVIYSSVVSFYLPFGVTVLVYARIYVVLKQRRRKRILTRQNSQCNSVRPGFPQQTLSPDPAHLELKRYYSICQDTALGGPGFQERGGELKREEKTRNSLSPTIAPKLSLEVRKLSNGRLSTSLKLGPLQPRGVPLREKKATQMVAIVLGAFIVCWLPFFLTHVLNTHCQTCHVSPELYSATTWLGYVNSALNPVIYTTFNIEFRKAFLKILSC
API: value field is a number in nM; no unit string.

1) [2H]c1c([2H])c([2H])c([C@@H]2C[C@@H](N3CCN(C([2H])([2H])[2H])C(C)(C)C3)c3cc(Cl)ccc32)c([2H])c1[2H]
16

Below: the item to evaluate.
**Q:** Give Ki for [2H]c1c([2H])c([2H])c([C@@H]2C[C@@H](N3CCNC(C)(C)C3)c3cc(Cl)ccc32)c([2H])c1[2H] tested on UniProtKB P35462.
**A:** 59

---

target: 5-hydroxytryptamine receptor 2A (Homo sapiens, UniProt P28223); experiment: Displacement of [125I](+/-)DOI from recombinant human 5-HT2A receptor measured after 60 mins by scintillation counting analysis
Sequence (P28223 whole entry): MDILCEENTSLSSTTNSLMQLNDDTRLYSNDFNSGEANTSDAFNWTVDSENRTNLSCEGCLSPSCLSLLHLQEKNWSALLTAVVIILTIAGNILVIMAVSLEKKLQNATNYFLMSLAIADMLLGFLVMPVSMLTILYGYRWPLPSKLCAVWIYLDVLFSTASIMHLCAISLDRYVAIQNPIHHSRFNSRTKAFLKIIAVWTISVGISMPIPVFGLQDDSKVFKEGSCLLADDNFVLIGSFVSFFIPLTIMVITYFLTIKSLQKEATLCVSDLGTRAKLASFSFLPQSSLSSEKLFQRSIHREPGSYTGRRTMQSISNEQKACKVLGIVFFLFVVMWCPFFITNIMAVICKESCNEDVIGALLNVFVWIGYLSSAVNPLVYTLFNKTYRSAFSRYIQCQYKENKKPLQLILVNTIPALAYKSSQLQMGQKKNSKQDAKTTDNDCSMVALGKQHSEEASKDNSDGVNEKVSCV
Measured quantity: Ki (nM)
API: value field is a number in nM; no unit string.

**Q:** Check the records and state Ki for [2H]c1c([2H])c([2H])c([C@@H]2C[C@@H](N3CCNC(C)(C)C3)c3cc(Cl)ccc32)c([2H])c1[2H]
**A:** 0.84

---

molecular target: D(1B) dopamine receptor (Homo sapiens, UniProt P21918); assay: Displacement of [3H]SCH 23390 from recombinant human D5 receptor measured after 60 mins by scintillation counting analysis
Sequence (P21918 whole entry): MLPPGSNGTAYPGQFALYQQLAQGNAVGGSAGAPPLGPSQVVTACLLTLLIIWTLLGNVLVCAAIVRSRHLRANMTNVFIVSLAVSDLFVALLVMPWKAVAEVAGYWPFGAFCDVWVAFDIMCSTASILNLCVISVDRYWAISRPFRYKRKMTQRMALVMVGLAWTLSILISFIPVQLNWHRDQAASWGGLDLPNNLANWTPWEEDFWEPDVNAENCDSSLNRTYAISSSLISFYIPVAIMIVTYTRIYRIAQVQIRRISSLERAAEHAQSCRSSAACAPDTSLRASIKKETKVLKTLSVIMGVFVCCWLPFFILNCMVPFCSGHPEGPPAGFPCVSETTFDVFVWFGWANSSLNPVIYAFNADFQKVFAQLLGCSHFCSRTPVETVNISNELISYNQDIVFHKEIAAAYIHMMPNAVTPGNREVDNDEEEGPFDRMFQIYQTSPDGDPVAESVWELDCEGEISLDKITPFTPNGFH
Measured quantity: Ki (nM)
API: value field is a number in nM; no unit string.

1) [2H]c1c([2H])c([2H])c([C@@H]2C[C@@H](N3CCN(C([2H])([2H])[2H])C(C)(C)C3)c3cc(Cl)ccc32)c([2H])c1[2H]
0.37

Below: the item to evaluate.
**Q:** Check the records and state Ki for [2H]c1c([2H])c([2H])c([C@@H]2C[C@@H](N3CCNC(C)(C)C3)c3cc(Cl)ccc32)c([2H])c1[2H]
**A:** 0.67

---

biological target: 5-hydroxytryptamine receptor 7 (Homo sapiens); experiment: Displacement of [3H]LSD from recombinant human 5-HT7 receptor measured after 120 mins by scintillation counting analysis
Sequence (P34969 whole entry): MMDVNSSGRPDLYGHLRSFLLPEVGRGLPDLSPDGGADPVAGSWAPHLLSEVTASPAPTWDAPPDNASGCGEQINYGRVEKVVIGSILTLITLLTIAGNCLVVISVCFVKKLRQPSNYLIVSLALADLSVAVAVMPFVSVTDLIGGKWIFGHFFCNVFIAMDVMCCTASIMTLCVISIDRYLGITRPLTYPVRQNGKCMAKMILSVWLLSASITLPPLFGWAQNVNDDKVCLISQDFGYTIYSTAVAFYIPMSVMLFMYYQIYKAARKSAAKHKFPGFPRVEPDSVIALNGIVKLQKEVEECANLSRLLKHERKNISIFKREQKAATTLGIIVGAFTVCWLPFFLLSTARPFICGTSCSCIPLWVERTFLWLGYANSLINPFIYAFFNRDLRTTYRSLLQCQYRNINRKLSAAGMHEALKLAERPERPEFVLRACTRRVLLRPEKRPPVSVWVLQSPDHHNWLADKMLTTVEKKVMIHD
Measured quantity: pKi
Entry type: numeric. Quantity: pKi, the -log10 of concentration in molar units.

1. [2H]c1c([2H])c([2H])c([C@@H]2C[C@@H](N3CCNC(C)(C)C3)c3cc(Cl)ccc32)c([2H])c1[2H]
7.96

**Q:** Check the records and state pKi for [2H]c1c([2H])c([2H])c([C@@H]2C[C@@H](N3CCN(C([2H])([2H])[2H])C(C)(C)C3)c3cc(Cl)ccc32)c([2H])c1[2H]
**A:** 8.42

---

Molecular target: 5-hydroxytryptamine receptor 2C (Homo sapiens, UniProt P28335)
Sequence (P28335 whole entry): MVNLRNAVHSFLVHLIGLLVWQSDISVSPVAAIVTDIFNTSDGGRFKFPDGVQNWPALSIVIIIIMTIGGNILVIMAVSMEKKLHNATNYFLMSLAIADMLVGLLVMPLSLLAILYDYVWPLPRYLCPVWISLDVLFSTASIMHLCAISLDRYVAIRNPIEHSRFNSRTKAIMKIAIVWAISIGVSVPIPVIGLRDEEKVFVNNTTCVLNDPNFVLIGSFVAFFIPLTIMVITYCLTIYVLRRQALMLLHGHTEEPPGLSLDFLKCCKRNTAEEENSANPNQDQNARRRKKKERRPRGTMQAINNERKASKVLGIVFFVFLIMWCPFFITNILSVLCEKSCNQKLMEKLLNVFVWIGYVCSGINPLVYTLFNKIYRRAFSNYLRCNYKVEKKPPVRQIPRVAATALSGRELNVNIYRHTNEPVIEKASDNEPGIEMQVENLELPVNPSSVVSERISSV
Assay: Displacement of [125I](+/-)DOI from recombinant human 5-HT2C receptor measured after 60 mins by scintillation counting analysis
Measured quantity: Ki (nM)
API: value field is a number in nM; no unit string.

1) [2H]c1c([2H])c([2H])c([C@@H]2C[C@@H](N3CCNC(C)(C)C3)c3cc(Cl)ccc32)c([2H])c1[2H]
1.1

Below: the item to evaluate.
**Q:** Check the records and state Ki for [2H]c1c([2H])c([2H])c([C@@H]2C[C@@H](N3CCN(C([2H])([2H])[2H])C(C)(C)C3)c3cc(Cl)ccc32)c([2H])c1[2H]
**A:** 1.5

---

biological target: 5-hydroxytryptamine receptor 6 (Homo sapiens, UniProt P50406); experiment: Displacement of [3H]LSD from recombinant human 5-HT6 receptor measured after 120 mins by scintillation counting analysis
Sequence (P50406 whole entry): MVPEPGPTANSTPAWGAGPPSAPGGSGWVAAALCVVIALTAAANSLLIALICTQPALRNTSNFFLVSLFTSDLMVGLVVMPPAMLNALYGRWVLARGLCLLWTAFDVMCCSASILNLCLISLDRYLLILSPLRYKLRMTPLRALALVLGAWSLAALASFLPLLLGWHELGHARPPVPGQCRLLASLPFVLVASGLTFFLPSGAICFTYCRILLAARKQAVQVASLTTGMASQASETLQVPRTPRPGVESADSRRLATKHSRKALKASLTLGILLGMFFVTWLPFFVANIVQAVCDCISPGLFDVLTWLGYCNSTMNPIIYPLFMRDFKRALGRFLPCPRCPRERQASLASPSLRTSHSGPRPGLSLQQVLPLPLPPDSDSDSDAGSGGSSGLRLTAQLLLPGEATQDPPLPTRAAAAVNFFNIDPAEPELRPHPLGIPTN
Measured quantity: Ki (pM)
API: value field is a number in pM; no unit string.

**Q:** Check the records and state Ki for [2H]c1c([2H])c([2H])c([C@@H]2C[C@@H](N3CCNC(C)(C)C3)c3cc(Cl)ccc32)c([2H])c1[2H]
**A:** 730

---

A collection of compounds and their measured pKi
Target: UniProt:P21917
Sequence (P21917 whole entry): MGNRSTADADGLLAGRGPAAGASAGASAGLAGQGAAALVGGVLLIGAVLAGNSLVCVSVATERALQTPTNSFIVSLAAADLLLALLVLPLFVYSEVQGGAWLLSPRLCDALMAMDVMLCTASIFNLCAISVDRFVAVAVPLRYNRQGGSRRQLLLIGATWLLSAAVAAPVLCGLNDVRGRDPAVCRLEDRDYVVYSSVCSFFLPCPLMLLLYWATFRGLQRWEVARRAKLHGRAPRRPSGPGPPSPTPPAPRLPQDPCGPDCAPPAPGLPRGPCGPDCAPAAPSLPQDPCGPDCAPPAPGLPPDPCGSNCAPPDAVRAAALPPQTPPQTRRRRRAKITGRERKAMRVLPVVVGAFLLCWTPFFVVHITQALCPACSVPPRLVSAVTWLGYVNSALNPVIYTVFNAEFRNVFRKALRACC
Assay: Displacement of [3H]methyl-spiperone from recombinant human D4.4 receptor measured after 60 mins by scintillation counting analysis
Entry type: numeric. Quantity: pKi, the -log10 of concentration in molar units.

1) [2H]c1c([2H])c([2H])c([C@@H]2C[C@@H](N3CCNC(C)(C)C3)c3cc(Cl)ccc32)c([2H])c1[2H]
7.96

Below: the item to evaluate.
**Q:** Check the records and state pKi for [2H]c1c([2H])c([2H])c([C@@H]2C[C@@H](N3CCN(C([2H])([2H])[2H])C(C)(C)C3)c3cc(Cl)ccc32)c([2H])c1[2H]
**A:** 8.17

---

molecular target: D(1A) dopamine receptor (Homo sapiens, UniProt P21728); assay: Displacement of [3H]SCH 23390 from recombinant human D1 receptor measured after 60 mins by scintillation counting analysis
Sequence (P21728 whole entry): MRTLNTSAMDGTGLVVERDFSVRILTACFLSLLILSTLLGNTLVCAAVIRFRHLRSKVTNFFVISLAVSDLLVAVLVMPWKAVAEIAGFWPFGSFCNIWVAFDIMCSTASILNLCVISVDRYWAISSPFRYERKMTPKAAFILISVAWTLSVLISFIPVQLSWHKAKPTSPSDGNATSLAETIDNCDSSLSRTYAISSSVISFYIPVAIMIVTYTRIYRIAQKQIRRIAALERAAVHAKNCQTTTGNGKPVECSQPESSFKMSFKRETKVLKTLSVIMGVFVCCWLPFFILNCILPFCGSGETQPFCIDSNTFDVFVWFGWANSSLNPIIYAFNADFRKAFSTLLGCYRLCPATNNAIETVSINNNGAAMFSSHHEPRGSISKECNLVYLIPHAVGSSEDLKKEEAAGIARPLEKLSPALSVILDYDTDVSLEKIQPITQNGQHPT
Measured quantity: pKi
Entry type: numeric. Quantity: pKi, the -log10 of concentration in molar units.

**Q:** Check the records and state pKi for [2H]c1c([2H])c([2H])c([C@@H]2C[C@@H](N3CCNC(C)(C)C3)c3cc(Cl)ccc32)c([2H])c1[2H]
**A:** 9.00
